Consider the following binders; for each one, report its ECL signal.
# ASSAY TARGET: T1, rHuman HGF R/c-MET/Fc Chimera (human, UniProt P08581 25-932)
# T1 construct: also called HGF R/Fc
# T1 sequence (P08581 25-932, change not shown): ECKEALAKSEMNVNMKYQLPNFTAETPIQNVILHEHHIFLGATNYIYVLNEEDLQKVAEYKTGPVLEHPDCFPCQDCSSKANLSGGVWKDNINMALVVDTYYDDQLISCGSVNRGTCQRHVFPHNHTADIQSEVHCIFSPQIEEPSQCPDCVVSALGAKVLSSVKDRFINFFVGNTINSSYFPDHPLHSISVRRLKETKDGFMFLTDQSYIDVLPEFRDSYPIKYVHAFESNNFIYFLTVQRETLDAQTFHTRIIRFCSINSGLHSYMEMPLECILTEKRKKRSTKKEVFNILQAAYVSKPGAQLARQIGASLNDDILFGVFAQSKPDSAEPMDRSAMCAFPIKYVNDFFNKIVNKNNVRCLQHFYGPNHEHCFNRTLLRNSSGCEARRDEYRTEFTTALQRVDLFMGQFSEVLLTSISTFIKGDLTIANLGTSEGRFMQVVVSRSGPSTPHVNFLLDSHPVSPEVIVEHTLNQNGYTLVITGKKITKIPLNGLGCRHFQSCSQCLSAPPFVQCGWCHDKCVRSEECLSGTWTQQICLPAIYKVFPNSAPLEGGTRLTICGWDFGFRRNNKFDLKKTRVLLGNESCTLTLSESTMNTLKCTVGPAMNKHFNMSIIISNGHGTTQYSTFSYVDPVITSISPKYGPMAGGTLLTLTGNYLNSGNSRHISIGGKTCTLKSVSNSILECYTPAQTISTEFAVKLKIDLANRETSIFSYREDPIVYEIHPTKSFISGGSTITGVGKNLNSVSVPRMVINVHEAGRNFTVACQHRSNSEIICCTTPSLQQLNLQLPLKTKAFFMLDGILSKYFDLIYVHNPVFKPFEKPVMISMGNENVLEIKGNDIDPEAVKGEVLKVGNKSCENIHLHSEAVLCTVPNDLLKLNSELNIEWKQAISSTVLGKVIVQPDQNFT
# ASSAY PROCEDURE: ECL multispot (MSD) binding assay; antigen spotted on plate, Fab in solution;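 note: purified Fab bound for 1 h at 20 °C, detected with a TAG-labelled antibody, electrochemiluminescence compared with each well's blank, signal-to-blank ratio of at least 4 scored as hit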
One number for each entry.

Use the examples below as a reference point.
BINDER	EXPERIMENTAL READOUT	NUMBER
Fab VH1-46_IGHD6-6*01_IGHJ1*01 S102A/S103P/S104F/H111F (APFF) & L6_IGKJ1*01 S92N (Fab, V domains shown, Tested as Fab (CH1 with His6/Flag tags from Plasmid A; kappa CL from Plasmid C); also called APFF / S92N) VH: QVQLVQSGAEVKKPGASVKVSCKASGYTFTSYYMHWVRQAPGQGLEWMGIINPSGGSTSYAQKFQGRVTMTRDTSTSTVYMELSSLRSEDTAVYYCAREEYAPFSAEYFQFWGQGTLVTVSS VL: EIVLTQSPATLSLSPGERATLSCRASQSVSSYLAWYQQKPGQAPRLLIYDASNRATGIPARFSGSGSGTDFTLTISSLEPEDFAVYYCQQRNNWPPWTFGQGTKVEIKR	ECL signal	243
Fab VH1-46_IGHD6-6*01_IGHJ1*01 S102A/S103P/S104F/H111F (APFF) & L6_IGKJ1*01 S92M (Fab, V domains shown, Tested as Fab (CH1 with His6/Flag tags from Plasmid A; kappa CL from Plasmid C); also called APFF / S92M) VH: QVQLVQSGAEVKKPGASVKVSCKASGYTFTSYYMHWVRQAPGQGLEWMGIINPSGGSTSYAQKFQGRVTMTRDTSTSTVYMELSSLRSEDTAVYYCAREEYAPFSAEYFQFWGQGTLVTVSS VL: EIVLTQSPATLSLSPGERATLSCRASQSVSSYLAWYQQKPGQAPRLLIYDASNRATGIPARFSGSGSGTDFTLTISSLEPEDFAVYYCQQRMNWPPWTFGQGTKVEIKR	ECL signal	346
Fab VH1-46_IGHD6-6*01_IGHJ1*01 S102A/S103P/S104F/H111F (APFF) & L6_IGKJ1*01 S92V (Fab, V domains shown, Tested as Fab (CH1 with His6/Flag tags from Plasmid A; kappa CL from Plasmid C); also called APFF / S92V) VH: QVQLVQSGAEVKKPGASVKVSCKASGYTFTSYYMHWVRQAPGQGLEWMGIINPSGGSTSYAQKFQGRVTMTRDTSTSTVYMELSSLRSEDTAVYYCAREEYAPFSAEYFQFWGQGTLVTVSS VL: EIVLTQSPATLSLSPGERATLSCRASQSVSSYLAWYQQKPGQAPRLLIYDASNRATGIPARFSGSGSGTDFTLTISSLEPEDFAVYYCQQRVNWPPWTFGQGTKVEIKR	ECL signal	288

// next item, ECL signal requested
Task: Which ECL signal reading was recorded for the binder Fab VH1-46_IGHD6-6*01_IGHJ1*01 S102A/S103P/S104F/H111F (APFF) & L6_IGKJ1*01 S92C (Fab, V domains shown, Tested as Fab made in E. coli: VH cloned into Plasmid A (CH1, His6 and Flag tags), kappa VL into Plasmid C (kappa CL); also called APFF / S92C) VH: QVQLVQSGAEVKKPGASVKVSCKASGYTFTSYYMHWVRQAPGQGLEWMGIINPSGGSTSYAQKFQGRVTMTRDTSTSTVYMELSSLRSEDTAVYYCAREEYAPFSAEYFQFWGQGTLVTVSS VL: EIVLTQSPATLSLSPGERATLSCRASQSVSSYLAWYQQKPGQAPRLLIYDASNRATGIPARFSGSGSGTDFTLTISSLEPEDFAVYYCQQRCNWPPWTFGQGTKVEIKR ?
Output: 589
